Sourced from the supplement of paper PMC9262897

test system: E. coli TESEC Mtb Alr; assay: growth (OD600 after 10 h); higher = more growth (less inhibition); settings: arabinose 10000 nM; compound 0.1 mM; raw OD600 reference: median of DMSO wells 0.264, cell-free background 0.041
Counter-ions that a name gives are not always drawn.
Consider the following molecules and their measured growth readings.
Answer with a number only.

# count of solved cases: 3
Nc1nc(O)c2ncn(CCC(CO)CO)c2n1 : 0.262
CC(NCCC(c1ccccc1)c1ccccc1)c1ccccc1 (stereo not drawn) [Fendiline hydrochloride] : 0.0388
Cc1cccc(C)c1OCC(C)N (stereo not drawn) [Mexiletine hydrochloride] : 0.262

Attention now turns to another entry.
Input: Specify growth for CN(CCCN1c2ccccc2CCc2ccccc21)CC(=O)c1ccc(Cl)cc1 , system E. coli TESEC Mtb Alr.
Output: 0.127
